B1: ANKRD40 (parent)
chain: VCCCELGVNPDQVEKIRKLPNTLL

# Variants of: B1
# Assay Overview: protein stability index of a GFP-peptide fusion (GPS, HEK-293T) (PSI 1-6); higher = more stable;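 also: lentivirally expressed fusions sorted by FACS into six bins by GFP to DsRed ratio, PSI derived from sequencing read proportions per bin multiplied by bin number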
# Measurement Setup: c terminus: a fixed tail appended
Readout: protein stability index
Respond numerically, and do not add a unit to the figure.

>>> val("N21Y")
2.47
>>> val("C2E")
3.52
>>> val("K15S")
2.34
>>> val("P20K")
1.95
>>> val("C2D")
3.2
>>> val("V13S")
2.05

protein stability index for `T22A` is 2.09

protein stability index for `E5Q` is 1.71

protein stability index for `V8F` is 1.3
